- Tested on: LNCaP
- experiment: Cytotoxicity against human LNCAP cells after 3 days by SRB assay
- Type: functional
- conditions: 72 h, read-out: ED50 (the source's name)
property_name: log10 of EC50 (log10 of the value in µg/mL)
Values are log10 of EC50 in µg/mL.

Please review the entries below; each comes with its answer.
| compound | reported |
| --- | --- |
| C=C1C(=O)[C@]23C[C@H]1C[C@H](OC(C)=O)[C@H]2[C@@]12CO[C@@]3(O)C[C@@H]1C(C)(C)CC[C@@H]2O [RABDOCOETSIN D] | -0.10 |
| C=C1C(=O)[C@]23[C@H](O)[C@H]1CC[C@H]2[C@@]12CO[C@@]3(O)C[C@@H]1C(C)(C)CC[C@@H]2O [MEGATHYRIN A] | 0.26 |
| COc1cc2c(c(OC)c1OC)-c1ccc(OC)c(=O)cc1[C@@H](NC(C)=O)CC2 [COLCHICINE] | -1.22 |
| C=C1C(=O)[C@]23[C@H](O)[C@H]1CC[C@H]2[C@@]12CO[C@@]3(O)C[C@@H]1C(C)(C)CC[C@@H]2OC(C)=O [RABDOCOETSIN B] | -0.22 |
| Cc1c2ccncc2c(C)c2c1[nH]c1ccccc12 [ELLIPTECINE] | -0.10 |

Continue with the next compound.
Data request: Please give the measured log10 of EC50 for this compound: C=C1C(=O)[C@]23C[C@H]1C[C@H](O)[C@H]2[C@@]12CO[C@@]3(O)C[C@@H]1C(C)(C)CC[C@@H]2O [RABDOCOETSIN C]
Data returned: -0.15

----------
- experiment: Cytotoxicity against human KBVIN cells in presence of 1 ug/ml vinblastine after 3 days by SRB assay
- Format: functional
- conditions: 72 h, read-out: ED50 (the source's name)
property_name: log10 EC50 (log10 of the value in µg/mL)
Values are log10 of EC50 in µg/mL.

Please review the entries below; each comes with its answer.
| molecule | log10 EC50 |
| --- | --- |
| C=C1C(=O)[C@]23[C@H](O)[C@H]1CC[C@H]2[C@@]12CO[C@@]3(O)C[C@@H]1C(C)(C)CC[C@@H]2O [MEGATHYRIN A] | 0.95 |
| C=C1C(=O)[C@]23C[C@H]1C[C@H](OC(C)=O)[C@H]2[C@@]12CO[C@@]3(O)C[C@@H]1C(C)(C)CC[C@@H]2O [RABDOCOETSIN D] | 1.08 |
| Cc1c2ccncc2c(C)c2c1[nH]c1ccccc12 [ELLIPTECINE] | -0.70 |
| C=C1C(=O)[C@]23[C@H](O)[C@H]1CC[C@H]2[C@@]12CO[C@@]3(O)C[C@@H]1C(C)(C)CC[C@@H]2OC(C)=O [RABDOCOETSIN B] | 0.86 |

Continue with the next molecule.
Data request: Please give the measured log10 EC50 for this molecule: COc1cc2c(c(OC)c1OC)-c1ccc(OC)c(=O)cc1[C@@H](NC(C)=O)CC2 [COLCHICINE]
Data returned: -0.22

----------
- Tested on: KB
- experiment: Cytotoxicity against human KB cells after 3 days by SRB assay
- Assay type: functional
- conditions: 72 h, read-out: ED50 (the source's name)
property_name: EC50 (µg/mL)
The response must be a number in µg/mL with no trailing unit.

Please review the entries below; each comes with its answer.
| compound | property_name | units_of_measure | reported |
| --- | --- | --- | --- |
| COc1cc2c(c(OC)c1OC)-c1ccc(OC)c(=O)cc1[C@@H](NC(C)=O)CC2 [COLCHICINE] | EC50 | µg/mL | 0.2 |
| C=C1C(=O)[C@]23[C@H](O)[C@H]1CC[C@H]2[C@@]12CO[C@@]3(O)C[C@@H]1C(C)(C)CC[C@@H]2OC(C)=O [RABDOCOETSIN B] | EC50 | µg/mL | 0.3 |
| C=C1C(=O)[C@]23[C@H](O)[C@H]1CC[C@H]2[C@@]12CO[C@@]3(O)C[C@@H]1C(C)(C)CC[C@@H]2O [MEGATHYRIN A] | EC50 | µg/mL | 1.1 |
| C=C1C(=O)[C@]23C[C@H]1C[C@H](O)[C@H]2[C@@]12CO[C@@]3(O)C[C@@H]1C(C)(C)CC[C@@H]2O [RABDOCOETSIN C] | EC50 | µg/mL | 0.6 |
| C=C1C(=O)[C@]23C[C@H]1C[C@H](OC(C)=O)[C@H]2[C@@]12CO[C@@]3(O)C[C@@H]1C(C)(C)CC[C@@H]2O [RABDOCOETSIN D] | EC50 | µg/mL | 0.5 |

Data request: Please give the measured EC50 for this compound: Cc1c2ccncc2c(C)c2c1[nH]c1ccccc12 [ELLIPTECINE]
Data returned: 0.04

The values you see were collected from ChEMBL document CHEMBL1148073.
